biological target: KDR (VEGFR2) (Homo sapiens); construct: purchased Invitrogen; experiment: Z'-LYTE kinase inhibition assay against KDR; assay type: biochemical; conditions: % inhibition at 1 μM, Z'-LYTE method
Sequence (P35968 20-1356): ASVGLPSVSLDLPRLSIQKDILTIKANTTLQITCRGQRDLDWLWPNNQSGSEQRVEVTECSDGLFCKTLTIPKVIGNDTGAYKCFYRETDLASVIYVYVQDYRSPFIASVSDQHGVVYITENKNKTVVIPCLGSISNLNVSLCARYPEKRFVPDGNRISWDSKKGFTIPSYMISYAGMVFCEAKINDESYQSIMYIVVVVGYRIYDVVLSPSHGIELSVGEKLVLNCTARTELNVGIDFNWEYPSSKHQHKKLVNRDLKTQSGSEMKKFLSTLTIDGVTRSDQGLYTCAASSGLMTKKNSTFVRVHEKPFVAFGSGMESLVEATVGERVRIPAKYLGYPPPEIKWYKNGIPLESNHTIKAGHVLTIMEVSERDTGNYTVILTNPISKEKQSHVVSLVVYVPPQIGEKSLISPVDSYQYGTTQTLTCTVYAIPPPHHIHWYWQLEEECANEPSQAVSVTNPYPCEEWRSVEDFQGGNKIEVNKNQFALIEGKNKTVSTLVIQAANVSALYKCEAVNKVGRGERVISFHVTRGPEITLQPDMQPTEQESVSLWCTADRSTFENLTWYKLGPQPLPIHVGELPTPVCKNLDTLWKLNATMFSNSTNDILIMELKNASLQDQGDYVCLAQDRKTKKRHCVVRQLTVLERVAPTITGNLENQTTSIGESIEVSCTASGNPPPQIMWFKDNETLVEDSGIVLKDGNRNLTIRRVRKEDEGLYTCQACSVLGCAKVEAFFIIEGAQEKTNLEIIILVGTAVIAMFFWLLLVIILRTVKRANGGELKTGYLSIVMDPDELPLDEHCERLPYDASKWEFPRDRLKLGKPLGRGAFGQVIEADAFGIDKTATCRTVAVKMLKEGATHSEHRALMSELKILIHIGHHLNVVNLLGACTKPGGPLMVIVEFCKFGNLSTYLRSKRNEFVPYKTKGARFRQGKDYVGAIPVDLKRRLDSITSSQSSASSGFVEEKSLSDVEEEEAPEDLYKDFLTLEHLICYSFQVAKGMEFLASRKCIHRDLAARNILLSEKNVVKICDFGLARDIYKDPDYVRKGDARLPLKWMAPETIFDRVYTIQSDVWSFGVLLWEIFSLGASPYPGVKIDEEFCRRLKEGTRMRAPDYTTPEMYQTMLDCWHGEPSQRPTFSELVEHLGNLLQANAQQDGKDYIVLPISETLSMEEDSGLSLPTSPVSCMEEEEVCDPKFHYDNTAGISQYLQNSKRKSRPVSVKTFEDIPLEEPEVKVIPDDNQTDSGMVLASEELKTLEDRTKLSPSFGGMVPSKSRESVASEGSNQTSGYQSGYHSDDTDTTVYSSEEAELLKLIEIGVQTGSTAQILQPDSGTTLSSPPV
MEASURED ENDPOINT: inhibition at 1 µM

A selection of reference data follows.
O=C(Nc1cccc(C(F)(F)F)c1)Nc1ccc(C(=O)c2ccc3ncc(N4CCNCC4)nc3c2)c(F)c1 [Compound C21] :: > 89%
O=C(Nc1ccc(Cl)cc1)Nc1ccc(C(=O)c2ccc3ncc(N4CCNCC4)nc3c2)cc1 [Compound C09] :: < 70%

Continue with the next compound.
Value of measured inhibition at 1 µM for the entry O=C(Nc1ccc(C(=O)c2ccc3nccnc3c2)cc1)Nc1cccc(C(F)(F)F)c1 [Compound C01] : < 70%
